All values here come from ChEMBL document CHEMBL2163337.

Below, each entry is listed alongside its reported MIC.
Test system: Staphylococcus aureus
Assay: Antibacterial activity against Staphylococcus aureus ATCC 25923 by two-fold dilution method
Format: functional
Provide only the numeric value, understood in µg/mL.

• COc1cc2c(cc1C)C(=O)C=C1C2=C(C2=Cc3c(cc(O)c4cc(C)c(OC)cc34)C(C)(C)C2=O)C(=O)C1(C)C [TRIGOHOWILOL F] = 12.5

Report measured MIC on Staphylococcus aureus; entry: COc1cc2c3c(cc(O)c2cc1C)C(C)(C)C(=O)C(C1=C2C(=CC(=O)c4cc(C)c(O)cc42)C(C)(C)C1=O)=C3 [TRIGOHOWILOL D]
12.5
